target: recombinant human CYP1A2 (Homo sapiens, UniProt P05177); construct: purchased Promega (P450-Glo Screening system); host or cells: baculovirus expression system; assay: Luminogenic P450-Glo enzyme inhibition assay, CYP1A2; assay type: in vitro ADME; conditions: classified by IC50 value; read-out: inhibitory potency class on CYP1A2
Sequence (P05177 whole entry): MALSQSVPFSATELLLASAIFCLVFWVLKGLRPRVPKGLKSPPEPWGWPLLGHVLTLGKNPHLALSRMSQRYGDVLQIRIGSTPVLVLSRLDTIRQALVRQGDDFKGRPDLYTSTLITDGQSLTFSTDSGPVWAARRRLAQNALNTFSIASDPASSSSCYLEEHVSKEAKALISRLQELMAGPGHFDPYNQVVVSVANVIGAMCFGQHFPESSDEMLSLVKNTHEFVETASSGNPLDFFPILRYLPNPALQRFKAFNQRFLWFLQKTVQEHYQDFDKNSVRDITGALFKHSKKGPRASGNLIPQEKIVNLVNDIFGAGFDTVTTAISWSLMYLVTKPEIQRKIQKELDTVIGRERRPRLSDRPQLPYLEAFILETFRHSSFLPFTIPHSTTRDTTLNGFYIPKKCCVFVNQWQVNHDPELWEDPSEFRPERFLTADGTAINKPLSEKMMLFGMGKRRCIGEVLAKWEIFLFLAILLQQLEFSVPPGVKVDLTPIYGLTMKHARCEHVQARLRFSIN
pIC50: −log10 of the molar value.
READOUT: pIC50

• O=c1c(O)c(-c2ccc(O)c(O)c2)oc2cc(O)ccc12 = > 4.16

Pending molecule:
Quick note, pIC50 for O=C1c2ccc(O)cc2OC(c2ccc(O)c(O)c2)C1O (centres unmarked) landed at < 3.46

---

target: recombinant human CYP3A4 (Homo sapiens); construct: purchased Promega (P450-Glo Screening system); host or cells: baculovirus expression system; assay: Luminogenic P450-Glo enzyme inhibition assay, CYP3A4; assay type: in vitro ADME; details: classified by IC50 value; read-out: inhibitory potency class on CYP3A4
Sequence (P08684 whole entry): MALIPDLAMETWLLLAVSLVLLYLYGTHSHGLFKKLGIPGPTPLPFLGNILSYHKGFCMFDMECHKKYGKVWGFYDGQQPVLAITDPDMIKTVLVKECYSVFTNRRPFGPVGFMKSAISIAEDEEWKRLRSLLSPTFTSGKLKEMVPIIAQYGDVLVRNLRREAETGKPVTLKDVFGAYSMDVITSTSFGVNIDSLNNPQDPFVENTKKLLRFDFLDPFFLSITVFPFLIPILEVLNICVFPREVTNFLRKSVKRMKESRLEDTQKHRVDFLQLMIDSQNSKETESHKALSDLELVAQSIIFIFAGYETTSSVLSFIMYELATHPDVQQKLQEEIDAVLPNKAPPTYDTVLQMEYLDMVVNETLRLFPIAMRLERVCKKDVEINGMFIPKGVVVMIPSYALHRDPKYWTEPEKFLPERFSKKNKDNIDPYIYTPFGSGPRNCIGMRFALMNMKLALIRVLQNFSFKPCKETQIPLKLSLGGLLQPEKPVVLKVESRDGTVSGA
READOUT: IC50

- O=C1c2ccc(O)cc2OC(c2ccc(O)c(O)c2)C1O (centres unmarked): > 347 µM

Simply: `O=c1c(O)c(-c2ccc(O)c(O)c2)oc2cc(O)ccc12` , recombinant human CYP3A4 (Homo sapiens), IC50 = > 349 µM
